These measurements were taken from patent US20200270339A1.

Target: human IL-15 complexed with the IL-15 Receptor-alpha (human, UniProt P40933 49-162)
Sequence (P40933 49-162 limits assumed, chain 1 of 2): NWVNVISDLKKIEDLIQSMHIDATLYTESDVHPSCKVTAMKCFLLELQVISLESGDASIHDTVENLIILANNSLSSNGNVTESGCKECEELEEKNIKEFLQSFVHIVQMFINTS
Sequence (chain, as listed by the source limits assumed, chain 2 of 2): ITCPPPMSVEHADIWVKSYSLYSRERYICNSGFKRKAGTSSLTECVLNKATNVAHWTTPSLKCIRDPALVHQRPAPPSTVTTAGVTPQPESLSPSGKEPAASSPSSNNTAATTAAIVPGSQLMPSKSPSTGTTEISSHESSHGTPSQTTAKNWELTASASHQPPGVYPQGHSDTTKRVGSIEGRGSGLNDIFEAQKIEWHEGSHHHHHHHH
Experiment: cell-based or functional assay
Assign labels as follows, please: criterion met for IC 50 (NK-92) in pM below 8 pM; criterion not met for IC 50 (NK-92) in pM equal to or exceeding 8 pM.

>>> class_label("Antibody 75 (antibody, V domains shown) VH: QVQLQESGPGLVKPSGTLSLTCAVSGGSISSSNWWSWVRQPPGKGLEWIGEIYHYGYTNYNPSLKSRVTISVDKSKNQFSLKLISVTAADTAVYYCAREGIGWPSFDYWGQGTLVTVSS VL: SSELTQDPAASVALGQTVRITCQGDTLRNYYASWYQQKPGQAPILVIYGKNNRPSGIPDRFSGSSSGNTASLTITGAQAEDEADYYCNSRDLSGKNLVFGGGTKLTVL")
"criterion met"
>>> class_label("Antibody 71 (antibody, V domains shown) VH: QVQLQESGPGLVKPSGTLSLTCAVSGGSISSSNWWSWVRQPPGKGLEWIGEIYHYGYTNYNPSLKSRVTISVDKSKNQFSLKLSSVTAADTAVYYCAREGIGWPSFDYWGQGTLVTVSS VL: SSELTQDPAASVALGQTVRITCQGDTLRSYYASWYQQKPGQAPILVIYGKNNRPSGIPDRFSGSSSGNTASLTITGAQAEDEADYYCNSRDESGKNLVFGGGTKLTVL")
"criterion not met"
>>> class_label("Antibody 76 (antibody, V domains shown) VH: QVQLQESGPGLVKPSGTLSLTCAVSGGSISSSNWWSWVRQPPGKGLEWIGEIYHYGYTNYNPSLKSRVTISVDKSKNQFSLKLISVTAADTAVYYCAREGIGWPSFDYWGQGTLVTVSS VL: SSELTQDPAASVALGQTVRITCQGDTLRNYYASWYQQKPGQAPILVIYGKNNRPSGIPDRFSGSSSGNTASLTITGAQAEDEADYYCNSRDESGKNLVFGGGTKLTVL")
"criterion met"
>>> class_label("Antibody 80 (antibody, V domains shown) VH: QVQLQESGPGLVKPSGTLSLTCAVSGGSISSSNWWSWVRQPPGKGLEWIGEIYHYGYTNYNPSLKSRVTISVDKSKNQFSLKLISVTAADTAVYYCAREGIGWPSFDYWGQGTLVTVSS VL: SSELTQDPAASVALGQTVRITCQGDTLRSYYASWYQQKPGQAPILVIYGKNNRPSGIPDRFSGSSSGNTASLTITGAQAEDEADYYCNSRDESGKNLVFGGGTKLTVL")
"criterion not met"

Ask: Confirm or reject: IC 50 (NK-92) in pM of Antibody 78 (antibody, V domains shown) VH: QVQLQESGPGLVKPSGTLSLTCAVSGGSISSSNWWSWVRQPPGKGLEWIGEIYHYGYTNYNPSLKSRVTISVDKSKNQFSLKLISVTAADTAVYYCAREGIGWPSFDYWGQGTLVTVSS VL: SSELTQDPAASVALGQTVRITCQGDTLRSYYASWYQQKPGQAPILVIYGKNNRPSGIPDRFSGSSSGNTASLTITGAQAEDEADYYCNSRESSGKNLVFGGGTKLTVL lies strictly below 8 pM
Result: criterion not met
